pKi: −log10 of the molar value.
Heads up, these molecules all have pKi values measured for Angiotensin-converting enzyme 2 (Homo sapiens, UniProt Q9BYF1).
Endpoint Label: pKi

| Molecule | Qualifying Sign | Recorded Value |
| --- | --- | --- |
| CC(=O)N[C@@H](CC(C)C)C(=O)N1CCC[C@@H]1P(=O)(O)C[C@@H](Cc1ccccc1)C(=O)O (stereo in doubt; 28) | = | 9.46 |
| O=C(O)[C@H](Cc1ccccc1)CP(=O)(O)[C@H]1CCCN1 | < | 5.00 |
| CC(=O)N[C@@H](CC(C)C)C(=O)N[C@H](Cc1ccccc1)P(=O)(O)C[C@@H](Cc1ccccc1)C(=O)O | = | 6.04 |
| O=C(N[C@H](Cc1ccccc1)P(=O)(O)C[C@@H](Cc1ccccc1)C(=O)O)OCc1ccccc1 | < | 5.00 |
| CC(=O)N[C@@H](C)C(=O)N1CCC[C@@H]1P(=O)(O)C[C@@H](Cc1ccccc1)C(=O)O | = | 8.12 |
| C[C@@H](NC(=O)OCc1ccccc1)P(=O)(O)C[C@@H](Cc1ccccc1)C(=O)O | < | 5.00 |
| C[C@@H](N)P(=O)(O)C[C@@H](Cc1ccccc1)C(=O)O | < | 5.00 |
| CC(=O)N[C@H](C(=O)N1CCC[C@@H]1P(=O)(O)C[C@@H](Cc1ccccc1)C(=O)O)C(C)C | = | 8.18 |
| CC(=O)N[C@@H](CCC(=O)O)C(=O)N1CCC[C@@H]1P(=O)(O)C[C@@H](Cc1ccccc1)C(=O)O | = | 8.15 |

====

Target: Carboxypeptidase A1 (Bos taurus, UniProt P00730)
Sequence (P00730 whole entry): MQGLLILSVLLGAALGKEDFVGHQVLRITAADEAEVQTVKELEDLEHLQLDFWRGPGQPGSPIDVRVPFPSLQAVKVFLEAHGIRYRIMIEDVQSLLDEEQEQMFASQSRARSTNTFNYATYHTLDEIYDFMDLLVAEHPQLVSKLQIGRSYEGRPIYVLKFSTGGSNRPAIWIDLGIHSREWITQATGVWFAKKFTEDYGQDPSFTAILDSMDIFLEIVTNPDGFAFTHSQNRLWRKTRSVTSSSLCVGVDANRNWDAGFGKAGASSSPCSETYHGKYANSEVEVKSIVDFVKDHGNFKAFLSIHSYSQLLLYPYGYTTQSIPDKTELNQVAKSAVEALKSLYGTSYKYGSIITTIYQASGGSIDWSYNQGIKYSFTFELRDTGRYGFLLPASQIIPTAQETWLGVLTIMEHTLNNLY
pKi: −log10 of the molar value.

| Compound | pKi |
| --- | --- |
| CC(=O)N[C@@H](Cc1c[nH]cn1)C(=O)N1CCC[C@@H]1P(=O)(O)CC(Cc1cc(-c2ccccc2)no1)C(=O)O (stereo partly drawn) | 5.98 |
| CC(=O)N[C@@H](Cc1c[nH]cn1)C(=O)N1CCC[C@@H]1P(=O)(O)C[C@@H](Cc1ccccc1)C(=O)O (stereo in doubt) | 7.22 |
| CC(=O)N[C@@H](CC(C)C)C(=O)N[C@H](Cc1ccccc1)P(=O)(O)C[C@@H](Cc1ccccc1)C(=O)O | 9.52 |
